# TARGET OR SYSTEM: T1, recombinant human CD3 epsilon/delta heterodimer (human, UniProt P07766 23-126; P04234 22-105)
# T1 construct: Recombinant protein in solution (200-50 nM) in the Octet assay; also called hCD3 E/D; human CD3E/D
# T1 sequence (P07766 23-126, stated change not applied, chain 1 of 2): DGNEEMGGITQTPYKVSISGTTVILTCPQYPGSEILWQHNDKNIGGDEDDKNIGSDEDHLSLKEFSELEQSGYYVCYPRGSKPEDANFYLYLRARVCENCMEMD
# T1 sequence (P04234 22-105, stated change not applied, chain 2 of 2): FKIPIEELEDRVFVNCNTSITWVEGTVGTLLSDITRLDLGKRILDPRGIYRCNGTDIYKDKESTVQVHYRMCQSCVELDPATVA
# ASSAY TEXT: Octet BLI, mAb on FAB2G sensor, hCD3 E/D 200-50 nM; R^2 0.99
MEASURE NAME: koff (s⁻¹)
Numeric answer only, unit s⁻¹ assumed.

INPUT: Give reported koff value for ABL-CD3-63 (antibody, V domains shown, Chimeric hybridoma mAb: human V, CH1, upper hinge; mouse middle hinge, CH2, CH3) VH: QVQLQESGPGLVKPSETLSLTCTVSGGSISSYYWSWIRQPAGKGLEWIGRIYTSGSTKYNPSLKSRVTMSVDTSKNQFSLKLISVTAADTAVYFCARERIRDLYFDYWGQGTLVTVSS VL: NFMLTQPHSVSESPGKTVTISCTRTSGSIASNYVQWYQQRPGSSPTTVIYEDNQRPSGVPDRFSGSIDSSSNSASLTISGLKTEDEAAYYCQSYDRSNRVFGGGTKLTVL
OUTPUT: 0.00145

INPUT: Supply recorded koff for ABL-CD3-54 (antibody, V domains shown, Chimeric hybridoma mAb: human V, CH1, upper hinge; mouse middle hinge, CH2, CH3) VH: EVQLVESGGGLVKPGGSLRLSCAASGFTFSSYSMNWVRQAPGKGLEWVSSISRSSRYIFYADSVRGRFTISRDNAKNSLYLQMNSLRAEDTAVYYCAREKRELLFDYWGQGTLVTVSS VL: NSMLTQPHSVSESPGKTVTISCTRSSGSIASYYVQWYQQRPGSSPTTVIYEDNQRPSGVPDRFSGSIDSSSNSASLTISGLKTEDEADYYCQSFDSSNRVFGGGTKLTVL here.
OUTPUT: 0.00267

INPUT: Return the recorded koff value; entry: ABL-CD3-50 (antibody, V domains shown, Chimeric hybridoma mAb: human V, CH1, upper hinge; mouse middle hinge, CH2, CH3) VH: QVQLQQSGPGLVKPSQTLSLTCAISGDSVSSNSVAWNWIRQSPSRGLEWLGRTYSRSKWYNDYAVSVKSRITINPDTSKNQFSLELNSVTPEDTAVYYCARERKWELFLDYWGQGTLVTVSS VL: NFMLTQPHSVSESPGKTVTISCTRSSGSIASNYVQWYQQRPGISPTTVIYEDNQRPSGVPDRFSGSIDSSSNSASLTISGLKTEDEADYYCQSFDTSNVVFGGGTKLTVL
OUTPUT: 0.0047
